molecules and their reported growth
# System: MALME-3M melanoma
# assayProcedure: NCI-60 one-dose screen, 48 h (100 = growth as untreated, 0 = no growth, -100 = all killed)
# conditionDetails: 10 µM unless noted
# Description: Cells are grown in 96 well plates and exposed to the test compound for 48 hours. Compounds are tested at a single concentration, which is 10^-5 M for most compounds. The reported endpoint is percent growth (GI% or GIPRCNT), where numbers from 0 - 100% represent growth inhibition, and numbers from -100% - 0 represent cell death. For example, a value of 40 represents 60% growth inhibition. A value of 0 means no net growth occurred over the course of the experiment. […]
The panel holds about 83,000 compounds, 20% with a hit somewhere; the sample as a whole holds those more often.
Answer format: numeric, % implied, no suffix.

Example results:
molecule | testedOn | unitOfMeasurement | growth
Nc1ccn(C2OC(CO)C(O)C2F)c(=O)n1 (stereo not given) | MALME-3M melanoma | % | 73
O=C1NC(=O)/C(=C\c2ccncc2)N1 | MALME-3M melanoma | % | 103
O=C1NCC2CCCC1C2 (stereo not given) | MALME-3M melanoma | % | 109
N#C/C(=C\c1ccc2c(c1)OCO2)c1ccccc1 | MALME-3M melanoma | % | 80.7
Cc1[nH]nc(C(N)=O)c1[N+](=O)[O-] | MALME-3M melanoma | % | 94

Here's the next entry for you.
Fill blank: measured growth of the molecule `C=CCc1cc(OC)c(OC)c(OC)c1` is ____. 109

====

# Tested on: IGROV1 ovarian
# assayProcedure: NCI-60 one-dose screen, 48 h
# conditionDetails: 10 µM unless noted
The panel holds about 83,000 compounds, 20% with a hit somewhere; the sample as a whole holds those more often. The source made the active and inactive calls. The calls were made as follows: active = growth percent below 10; inactive = the rest.
Valid outcomes are listed here; reply with one: 1 for active, -1 for inactive

Use the examples below as a reference point.
molecule | className
CC1CC2C3CCC4=CC(=O)CCC4(C)C3CCC2(C)C1(O)C(=O)CO (centres undefined) | -1
CC(=O)/C(C)=N\OC(=O)Nc1ccccc1 | -1
Nc1ccc2c(c1)Cc1cc(N)c(N)cc1-2 | -1
CC(=O)O[C@H]1CC[C@]2(C)C3=C(C(=O)C[C@H]2C1(C)C)[C@]1(C)CC[C@H]([C@H](C)CCC(=O)O)[C@@]1(C)CC3=O | -1
CC(=O)C1C(=O)C(=O)N(c2cccc([N+](=O)[O-])c2)C1=O (centres undefined) | -1

Give the logged outcome of this assay for the following molecule: `O=[N+]([O-])c1c(Cl)ncnc1Cl` -1

Give the logged outcome of this assay for the following molecule: `CCCCOC(=O)c1ccc(NC(=O)CCl)cc1` 1

Give the logged outcome of this assay for the following molecule: O=C(OCC1CCCO1)c1ccc([N+](=O)[O-])cc1 (centres undefined) -1

Give the logged outcome of this assay for the following molecule: `Nc1nc(N)nc(N2CCCCC2)n1` -1

====

molecules and their reported growth
# Test system: NCI-H322M lung
# assayProcedure: NCI-60 one-dose screen, 48 h (100 = growth as untreated, 0 = no growth, -100 = all killed)
# conditionDetails: 10 µM unless noted
About 83,000 compounds went through this panel and 20% of them were active in at least one assay; those are over-represented in the sample as a whole.
Answer format: numeric, % implied, no suffix.

Example results:
molecule | observedResult
NC(CO)(CO)c1ccccc1 | 101
CC1(C)C2CCC1(C)C1(C2)OCCS1 (stereo not given) | 99.6
CCOC(=O)Nc1nccs1 | 99.6
C#CC(O)c1ccccc1 (stereo not given) | 104
O=C(CCl)Nc1ccccc1SCc1cc(Cl)cc2c1OCOC2 | 89.7
CCOc1ccc2c(c1)c(C)cc(C)[n+]2CC | 83.2

# returns recorded growth (system: NCI-H322M lung) for `O=C(NCCc1ccccc1)/C(=C\c1ccc(Cl)cc1Cl)NC(=O)c1ccccc1` 101

# returns recorded growth (system: NCI-H322M lung) for `Cn1c(=O)[nH]c2ccccc2c1=O` 105

# returns recorded growth (system: NCI-H322M lung) for `CCOC(=O)C(C#N)=C1CCN(C)CC1` 107

# returns recorded growth (system: NCI-H322M lung) for `COc1ccc2c(c1)Nc1ccccc1S2` 101

====

# Test system: HOP-92 NSCLC
# assayProcedure: NCI-60 one-dose screen, 48 h
# conditionDetails: 10 µM unless noted
The panel holds about 83,000 compounds, 20% with a hit somewhere; the sample as a whole holds those more often. Active and inactive are the calls of the source. Rule for the calls: active = growth percent below 10; inactive = the rest.
Valid outcomes are listed here; reply with one: TRUE (active), FALSE (inactive)

molecule | className
CC(=O)OC/C(C)=C\CC(C)COC(C)=O (stereo unspecified) | FALSE

Give the logged outcome of this assay for the following molecule: `Nc1cc2c(cc1Cl)C(=O)c1ccccc1C2=O` TRUE

Give the logged outcome of this assay for the following molecule: `CCCCNc1ccc(-c2ccc(NCCCC)cc2)cc1` FALSE

Give the logged outcome of this assay for the following molecule: `CCN(CC)CCN1CNC(=S)NC1` FALSE

Give the logged outcome of this assay for the following molecule: `COc1nc(Nc2cccc(C(F)(F)F)c2)nc(OC)n1` FALSE

Give the logged outcome of this assay for the following molecule: `CCOC(=O)/C(C)=C\c1ccc(OC)c(OC)c1` FALSE

Give the logged outcome of this assay for the following molecule: `Cc1ccc(/C=N/NC(N)=S)s1` FALSE

Give the logged outcome of this assay for the following molecule: `COc1c(CNC(=O)CCl)cc2[nH]c(C)cc2c1CNC(=O)CCl` FALSE

Give the logged outcome of this assay for the following molecule: `C=CC(C)(C)n1cc(C2=C(O)C(=O)C(c3cn(C(C)(C)C=C)c4ccccc34)=C(O)C2=O)c2ccccc21` FALSE

Give the logged outcome of this assay for the following molecule: `c1ccc(Oc2c3ccccc3nc3ccccc23)cc1` TRUE

Give the logged outcome of this assay for the following molecule: `CCOC(=O)c1c(C)[nH]c(C)c1C=O` FALSE

Give the logged outcome of this assay for the following molecule: `O=Cc1ccc(Cl)c(Cl)c1` FALSE

Give the logged outcome of this assay for the following molecule: `Clc1cccc(Cl)c1CSc1nc2ccccc2n2cccc12` FALSE

Give the logged outcome of this assay for the following molecule: `CCOC(=O)/C(O)=C(\C=N\C(=S)Nc1ccc(Cl)c(Cl)c1)C(=O)OCC` FALSE

Give the logged outcome of this assay for the following molecule: `CCCCCCCCCCCCCCCCOc1ccccc1NC(=O)CC(C)=O` FALSE

====

# Tested on: SF-295 CNS
# assayProcedure: NCI-60 one-dose screen, 48 h (100 = growth as untreated, 0 = no growth, -100 = all killed)
# conditionDetails: 10 µM unless noted
About 83,000 compounds went through this panel and 20% of them were active in at least one assay; those are over-represented in the sample as a whole.
molecules and their reported growth
Answer format: numeric, % implied, no suffix.

molecule | testedOn | growth, %
Cc1cc(CO)c(O)c(CO)c1 | SF-295 CNS | 109

# returns recorded growth (system: SF-295 CNS) for `OC(CCN1CCCCC1)(c1ccccc1)c1ccccc1` 111

# returns recorded growth (system: SF-295 CNS) for `Cc1[nH]nc(C(N)=O)c1[N+](=O)[O-]` 99

# returns recorded growth (system: SF-295 CNS) for `C=COC(=O)C(C)(C)C` 93.1

# returns recorded growth (system: SF-295 CNS) for C=CC(C)C(C)(C)O (stereo not given) 102

# returns recorded growth (system: SF-295 CNS) for CS(=O)CC(=N\O)/C(CS(C)=O)=N\O (stereo not given) 101

# returns recorded growth (system: SF-295 CNS) for COC(CCCl)c1ccc(Cl)cc1 (stereo not given) 112

# returns recorded growth (system: SF-295 CNS) for `Ic1cccs1` 95.9

# returns recorded growth (system: SF-295 CNS) for `CCCCCCCCNC(=O)C(C)C` 100

# returns recorded growth (system: SF-295 CNS) for `CCCOCc1cn[nH]n1` 101

====

# Tested on: MOLT-4 leukemia
# assayProcedure: NCI-60 one-dose screen, 48 h (100 = growth as untreated, 0 = no growth, -100 = all killed)
# conditionDetails: 10 µM unless noted
# Protocol: Growth inhibition of the MOLT-4 human tumor cell line is measured as a screen for anti-cancer activity. Cells are grown in 96 well plates and exposed to the test compound for 48 hours. Compounds are tested at a single concentration, which is 10^-5 M for most compounds. The reported endpoint is percent growth (GI% or GIPRCNT), where numbers from 0 - 100% represent growth inhibition, and numbers from -100% - 0 represent cell death. For example, a value of 40 represents 60% growth inhibition. […]
This is part of a sample that, as a whole, favours compounds with a hit. Of some 83,000 tested, about 20% had one in any assay.
compounds and their reported growth
Answer format: numeric, % implied, no suffix.

compound | unitOfMeasurement | growth
CCOS(=O)(=O)c1ccc([N+](=O)[O-])cc1 | % | 98.5

# returns recorded growth (system: MOLT-4 leukemia) for `Cc1ccc2[nH]c3ccccc3c2c1` 94.4

# returns recorded growth (system: MOLT-4 leukemia) for `Nc1cc2ccccc2c(O)c1O` -6.45

# returns recorded growth (system: MOLT-4 leukemia) for O=S(Cc1ccccc1)/C(=C/NC(=S)Nc1ccccc1)c1ccccc1 (stereo not given) 103

# returns recorded growth (system: MOLT-4 leukemia) for `COc1cccc(N=CNc2cccc(OC)c2)c1` 90.9

# returns recorded growth (system: MOLT-4 leukemia) for `COc1cc(OC)c2cc(C(=O)c3ccc(C#N)cc3)c(=O)oc2c1` 103

# returns recorded growth (system: MOLT-4 leukemia) for `CCCCCCCCCCC(=O)CCCCCCCCCC` 92
